What pKd was measured for each of the following?
Target: T1, DNAJA2 (DJA2), His-tagged (UniProt O60884 1-412)
T1 construct: DNAJA2, J-domain co-chaperone of HSC70
T1 sequence (O60884 whole entry): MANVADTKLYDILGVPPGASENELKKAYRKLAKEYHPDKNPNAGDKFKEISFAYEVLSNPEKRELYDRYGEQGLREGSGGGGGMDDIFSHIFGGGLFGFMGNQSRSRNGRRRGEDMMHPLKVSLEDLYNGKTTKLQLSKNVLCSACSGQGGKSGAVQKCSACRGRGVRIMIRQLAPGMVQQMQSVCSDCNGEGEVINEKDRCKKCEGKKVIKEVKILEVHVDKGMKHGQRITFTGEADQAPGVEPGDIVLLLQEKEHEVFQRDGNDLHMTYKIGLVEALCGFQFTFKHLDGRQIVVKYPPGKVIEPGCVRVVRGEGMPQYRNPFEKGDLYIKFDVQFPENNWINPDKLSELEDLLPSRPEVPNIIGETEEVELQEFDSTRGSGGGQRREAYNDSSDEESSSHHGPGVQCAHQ
Test: ELISA; titration of increasing concentrations of chaperone on immobilised biotinylated peptide; HSC70 with ATP; apparent Kd from linearised binding curves
Conditions: both partners purified
Ends that are not written are not given here. * marks the point of attachment. Biotin = O=C1N[C@H]2[C@H](CS[C@H]2CCCCC(=O)*)N1
Answers are plain numbers, as −log10 of the molar value.

# binder, pKd
data = [
    ("Biotin-GSGSRTLKQAFADCTVILC (cysteine pairing not given here, linker; CFTR, 15-mer numbered by its middle residue 1393, from NBD2; source: synthetic peptide (Mimotopes, PepSet purity)) [CFTR peptide 1393-L, biotinylated (library form)]", 5.95),
]

Now consider the entry below.
Q: Which measured pKd value corresponds to Biotin-GSGSTVILCEHRIEAMLEC (cysteine pairing not given here, linker; CFTR, 15-mer numbered by its middle residue 1403, from NBD2; source: synthetic peptide (Mimotopes, PepSet purity)) [CFTR peptide 1403-L, biotinylated (library form)] ?
Ans: 5.92
